System: Rattus norvegicus
Experiment: Plasma concentration in po dosed Wistar rat assessed as 3-(3,4-Dihydroxy-phenyl)propionic Acid 2-butyl-5-chloro-3-[2'-(2H-tetrazol-5-yl)-biphenyl-4-ylmethyl]-3H-imidazol-4-ylmethylester level after 4 weeks
Assay type: ADME, organism-based
Details: in vivo, 672 h
experimental endpoint: concentration (nM)
Lab book: enter the figure in nM, no units written.

Summary for this compound, "CCCCc1nc(Cl)c(COC(=O)CCc2ccc(O)c(O)c2)n1Cc1ccc(-c2ccccc2-c2nnn[nH]2)cc1" : concentration is 171

###

System: Rattus norvegicus
Assay: Plasma concentration in po dosed Wistar rat assessed as EXP-3174 level after 4 weeks in presence of losartan
Assay type: ADME, organism-based
Settings: in vivo, 672 h
experimental endpoint: concentration
Could you give the number and then its unit, please?

For O=C(O)CCc1ccc(O)c(O)c1 [DIHYDROCAFFEIC ACID] the compound record lists concentration as 19.4 nM

###

Test system: VSMC
Experiment: Displacement of [125I]angiotensin II from angiotensin 2 receptor in Wistar rat VSMC cells by gamma-counter
Format: cell-based
Parameters: concentration or dose not given beside the values
Reported Activity values follow for various compounds
Output spec: scalar in %, unitless text.

Record CCCCc1nc(Cl)c(COC(=O)C2(C)CCc3c(C)c(O)c(C)c(C)c3O2)n1Cc1ccc(-c2ccccc2-c2nnn[nH]2)cc1 (centres undefined) , field Activity: 68

Noted for CCCCc1ncc(COC(=O)C2(C)CCc3c(C)c(O)c(C)c(C)c3O2)n1Cc1ccc(-c2ccccc2-c2nnn[nH]2)cc1 (centres undefined) : its Activity reads 65

***
Data point: "CCCCc1ncc(COC(=O)c2cc(OC)c(O)c(OC)c2)n1Cc1ccc(-c2ccccc2-c2nnn[nH]2)cc1" ; Activity = 66

Reported Activity for "CCCCc1nc(Cl)c(COC(=O)CCc2ccc(O)c(O)c2)n1Cc1ccc(-c2ccccc2-c2nnn[nH]2)cc1" was 59

###

Assay: Solubility in water assessed as nonhydrolzed drug level after 2 days
Assay type: physicochemical
Settings: read-out: Activity
experimental endpoint: remaining at 48 h
Note to self: number, then unit, no commentary.

Data point: "CCCCc1nc(Cl)c(COC(=O)CCc2ccc(O)c(O)c2)n1Cc1ccc(-c2ccccc2-c2nnn[nH]2)cc1" ; remaining at 48 h = 95.9%

###

Tested on: VSMC
Test: Displacement of [125I]angiotensin II from angiotensin 2 receptor in Wistar rat VSMC cells by gamma-counter
Assay type: cell-based
Set-up: concentration or dose not given beside the values
This listing pairs molecules with measured Activity.
Answer in %, number only, no unit symbol.

Take a look at these entries with their results.
The reported Activity of the molecule "CCCCc1ncc(COC(=O)CCc2ccc(O)c(O)c2)n1Cc1ccc(-c2ccccc2-c2nnn[nH]2)cc1" was 60

For record "CCCCc1ncc(COC(=O)Cc2cc(C(C)(C)C)c(O)c(C(C)(C)C)c2)n1Cc1ccc(-c2ccccc2-c2nnn[nH]2)cc1" the listed Activity is 77

Entry CCCCc1nc(Cl)c(CO)n1Cc1ccc(-c2ccccc2-c2nnn[nH]2)cc1 [LOSARTAN] ; Activity = 53

Further cases:
Form field Activity, entry "CCCCc1nc(Cl)c(COC(=O)Cc2cc(C(C)(C)C)c(O)c(C(C)(C)C)c2)n1Cc1ccc(-c2ccccc2-c2nnn[nH]2)cc1" : 65
